FYI, the data here is from patent US20130157953A1.

MEASURED ON: human glucagon-like peptide 1 receptor (GLP-1R) (human, UniProt P43220 24-463)
PROTOCOL DETAILS: cell-based or functional assay
Reported EC50 (nM) GLP-1R; cAMP content, HEK293 cells expressing human GLP-1R is given for each of the following binders.
READOUT NAME: EC50 (nM) GLP-1R; cAMP content, HEK293 cells expressing human GLP-1R

* H-HSQGTFTSDYSRYLDERRAQDFVWLMNT-NH2 [Compound 258] | 0.07
* H-HSQGTFTSDYSRYLDSRRAKDFVWLLNT-NH2 [Compound 252] | 0.5
* H-HSQGTFTSDYSKYLDKRRAEDFVWLMNT-NH2 [Compound 256] | 0.2
